tested_system: T1, human bradykinin B1 receptor (human, UniProt P46663 1-353)
T1 construct: whole, on cells; Assays were run on cell membrane preparations (50 ug/well), not on intact cells; HEK293T::GFP::hB1R membranes appear only in the saturation assay; also called hB1R; BDKRB1
T1 sequence (looked up): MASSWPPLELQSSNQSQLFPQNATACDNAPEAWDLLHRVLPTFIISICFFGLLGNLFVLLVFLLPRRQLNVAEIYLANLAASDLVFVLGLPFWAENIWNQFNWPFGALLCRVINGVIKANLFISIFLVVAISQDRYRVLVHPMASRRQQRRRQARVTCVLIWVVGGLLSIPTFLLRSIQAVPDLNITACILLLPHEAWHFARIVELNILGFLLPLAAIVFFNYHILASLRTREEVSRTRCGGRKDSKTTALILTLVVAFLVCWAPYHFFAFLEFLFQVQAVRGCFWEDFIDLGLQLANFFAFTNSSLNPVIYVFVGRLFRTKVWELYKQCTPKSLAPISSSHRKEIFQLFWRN
assay_remarks: saturation radioligand binding, membranes of CHO-K1::hB1R cells
Where no end group is shown, it is not given here.
endpoint_label: pKd
One number for each entry, as −log10 of the molar value.

Please give the documented pKd of KRPPGFSPL (also: 3,4-prolyl-3,4-3H(N) tritium label on proline, Radioligand from American Radiolabeled Chemicals (ART1609) or Perkin Elmer (NET1096250UC); also called BK-ANT-ARC; BK-ANT-PE) [[3,4-prolyl-3,4-3H(N)] [Leu^9, Des-Arg^10]Kallidin] 9.24
